# SYSTEM NAME: T1, beta-catenin protein (Abcam, ab63175) (UniProt P35222 1-781, limits assumed)
# T1 construct: Bought protein coated on the ELISA plate; also called β-catenin; target protein β-catenin
# T1 sequence (looked up): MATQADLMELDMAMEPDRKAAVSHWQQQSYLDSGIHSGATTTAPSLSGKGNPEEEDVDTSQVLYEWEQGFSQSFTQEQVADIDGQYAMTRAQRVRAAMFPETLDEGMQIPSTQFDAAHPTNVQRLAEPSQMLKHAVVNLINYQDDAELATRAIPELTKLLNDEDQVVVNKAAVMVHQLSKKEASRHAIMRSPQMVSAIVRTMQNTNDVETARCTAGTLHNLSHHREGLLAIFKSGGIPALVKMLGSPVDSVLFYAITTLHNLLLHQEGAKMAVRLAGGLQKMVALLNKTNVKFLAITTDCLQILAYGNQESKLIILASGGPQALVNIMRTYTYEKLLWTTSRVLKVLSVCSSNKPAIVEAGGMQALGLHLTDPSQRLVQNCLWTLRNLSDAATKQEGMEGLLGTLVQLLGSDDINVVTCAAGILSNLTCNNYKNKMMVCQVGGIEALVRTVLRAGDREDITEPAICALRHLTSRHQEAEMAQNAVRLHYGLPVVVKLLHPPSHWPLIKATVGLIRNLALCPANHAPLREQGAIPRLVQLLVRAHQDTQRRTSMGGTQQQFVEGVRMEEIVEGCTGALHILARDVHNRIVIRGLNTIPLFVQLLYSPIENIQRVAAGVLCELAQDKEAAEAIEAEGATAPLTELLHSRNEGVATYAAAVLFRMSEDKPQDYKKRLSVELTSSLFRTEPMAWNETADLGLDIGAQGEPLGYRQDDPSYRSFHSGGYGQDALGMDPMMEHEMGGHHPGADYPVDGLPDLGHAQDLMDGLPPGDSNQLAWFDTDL
# TEST: ELISA; beta-catenin coated on plate
[ ]: non-standard residue; d: D form. The star is where a group is joined. FITC = O=C1OC2(c3ccc(O)cc3Oc3cc(O)ccc32)c2ccc(NC(=S)*)cc21; Dap = NC[C@H](N)C(=O)O
EXPERIMENTAL READOUT: EC50

The recorded EC50 for {FITC}-RWPQ[Dap](fluoroacetyl)ILD[Dap](fluoroacetyl)HVRRVWR-NH2 (also called peptide (47); unstapled peptide (47)) [FITC labelled fluoroacetamide containing L,L substrate (47), unstapled Axin-derived peptide analogue] is ~300 nM
